- Tested on: Staphylococcus aureus ATCC 29213
- assay details: Antibacterial microdilution broth method (EUCAST)
- Type: cell-based
- study conditions: ATCC29213, 24 h, read-out: MIC SA 24 h
Counter-ions that a name gives are not always drawn.
Quick list: MIC per entry.
Answer in µM, number only, no unit symbol.

# compound, assayed system, recorded result
rows = [
    ("[H]/N=C(\\N)NN=Cc1c(O)cccc1Cl", "Staphylococcus aureus ATCC 29213", 250),
    ("NC(=O)N/N=C/c1cc(I)cc(I)c1O", "Staphylococcus aureus ATCC 29213", 250),
    ("CC(=O)Oc1c(I)cc(I)cc1/C=N/NC(=N)N", "Staphylococcus aureus ATCC 29213", 125),
    ("NC(=S)N/N=C/c1cc(I)cc(I)c1O", "Staphylococcus aureus ATCC 29213", 500),
    ("[H]/N=C(\\N)NN=Cc1cc(I)c(O)c(I)c1", "Staphylococcus aureus ATCC 29213", 500),
]

Request: MIC, test system Staphylococcus aureus ATCC 29213, entry [H]/N=C(\N)NN=Cc1cc(Cl)cc(Br)c1O
250

Query for Staphylococcus aureus ATCC 29213: what MIC does the record show for [H]/N=C(\N)NN=Cc1ccc(Cl)cc1O ?
500

Notebook entry, Staphylococcus aureus ATCC 29213 assay: MIC of CCN1CCN(C(=O)N[C@@H](C(=O)N[C@@H]2C(=O)N3[C@@H]2SC(C)(C)[C@@H]3C(=O)O)c2ccccc2)C(=O)C1=O [PIP, piperacillin sodium salt, reference compound] = ?
1.85

---

- assayed system: AChE from electric eel (EeAChE) (Electrophorus electricus)
- Sequence (O42275 24-633): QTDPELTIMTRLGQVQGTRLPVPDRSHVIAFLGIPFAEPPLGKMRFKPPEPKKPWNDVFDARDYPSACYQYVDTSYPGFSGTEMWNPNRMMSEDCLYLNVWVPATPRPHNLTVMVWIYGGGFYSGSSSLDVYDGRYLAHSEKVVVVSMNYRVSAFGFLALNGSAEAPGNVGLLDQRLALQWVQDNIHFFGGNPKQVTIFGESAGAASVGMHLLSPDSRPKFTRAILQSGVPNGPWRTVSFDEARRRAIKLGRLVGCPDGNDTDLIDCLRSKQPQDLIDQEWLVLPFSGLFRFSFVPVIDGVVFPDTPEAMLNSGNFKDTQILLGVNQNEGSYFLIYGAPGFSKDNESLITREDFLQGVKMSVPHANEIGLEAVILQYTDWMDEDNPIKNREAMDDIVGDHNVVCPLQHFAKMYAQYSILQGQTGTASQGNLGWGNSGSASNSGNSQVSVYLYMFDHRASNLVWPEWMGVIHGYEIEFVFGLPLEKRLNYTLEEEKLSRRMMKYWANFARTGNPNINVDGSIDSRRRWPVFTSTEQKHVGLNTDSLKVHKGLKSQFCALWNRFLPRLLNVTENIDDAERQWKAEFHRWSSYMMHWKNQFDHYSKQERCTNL
- assay details: biochemical
- Format: biochemical
measured metric: Selectivity AChE/BuChE
Provide a numeric answer; units are not to be included.

Recorded Selectivity AChE/BuChE, per entry:
# compound smiles, measured metric, recorded result
data = [
    ("[H]/N=C(\\N)NN=Cc1cc(Cl)ccc1O", "Selectivity AChE/BuChE", 0.83),
    ("[H]/N=C(\\N)NN=Cc1cc(Cl)cc(Br)c1O", "Selectivity AChE/BuChE", 1.92),
    ("[H]/N=C(\\N)NN=Cc1ccco1", "Selectivity AChE/BuChE", 0.50),
]

Request - read-out Selectivity AChE/BuChE | tested on AChE from electric eel (EeAChE) (Electrophorus electricus) | molecule CC(=O)Oc1c(I)cc(I)cc1/C=N/NC(=N)N
4.54

Report Selectivity AChE/BuChE for [H]/N=C(\N)NN=Cc1c(O)cccc1Cl tested on AChE from electric eel (EeAChE) (Electrophorus electricus).
0.47

---

Measured IC50 of individual entries
- assayed system: BuChE from equine serum (EqBuChE) (Equus caballus, UniProt P81908)
- Sequence (P81908 whole entry): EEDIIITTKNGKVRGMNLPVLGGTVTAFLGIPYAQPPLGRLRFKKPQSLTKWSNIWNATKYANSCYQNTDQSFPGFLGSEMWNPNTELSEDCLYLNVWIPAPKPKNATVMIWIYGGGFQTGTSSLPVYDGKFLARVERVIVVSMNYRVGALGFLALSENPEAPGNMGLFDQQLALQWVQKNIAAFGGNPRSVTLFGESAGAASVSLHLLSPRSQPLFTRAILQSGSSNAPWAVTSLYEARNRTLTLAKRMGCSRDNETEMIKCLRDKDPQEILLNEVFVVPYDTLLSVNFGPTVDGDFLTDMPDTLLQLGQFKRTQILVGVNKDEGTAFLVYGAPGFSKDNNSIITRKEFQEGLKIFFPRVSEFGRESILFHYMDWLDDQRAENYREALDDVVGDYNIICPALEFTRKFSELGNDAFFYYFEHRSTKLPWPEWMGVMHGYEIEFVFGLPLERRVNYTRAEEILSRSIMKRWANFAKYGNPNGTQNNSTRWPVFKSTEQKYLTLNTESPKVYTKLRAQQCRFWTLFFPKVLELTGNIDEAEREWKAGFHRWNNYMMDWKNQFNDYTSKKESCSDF
- assay details: biochemical
- study conditions: IC50 BuChE
A number alone suffices; assume µM.

# compound smiles, unit, IC50
measured = [
    ("[H]/N=C(\\N)NN=Cc1ccccc1", "µM", 44.9),
]

Shift focus to the following entry.
Return reported IC50; argument: [H]/N=C(\N)NN=Cc1ccc([N+](=O)[O-])o1
204

---

- Test system: Candida albicans ATCC 24443
- assay details: microbe, parasite or virus in culture
- Type: cell-based
- study conditions: ATCC24443, 24 h, read-out: MIC CA 24 h
Recorded measurements of MIC, one per entry
Response body: numeric value in µM, unit text excluded.

Which MIC is listed for [H]/N=C(\N)NN=Cc1cc(Cl)cc(Br)c1O ?
250

Would you kindly share the measured MIC for CC(=O)Oc1c(I)cc(I)cc1/C=N/NC(=N)N ?
125

What MIC value was documented for this compound, Cl.N=C(NN)N/N=C/c1cc(I)cc(I)c1O ?
125

Given [H]/N=C(\N)NN=Cc1cc(I)ccc1O , state its recorded MIC.
500

---

- Test system: Klebsiella pneumoniae ATCC 10031
- study conditions: 24 h incubation
measured metric: MIC KP 24 h (µM)
API: value field is a number in µM; no unit string.

As a guide, the following entries are already answered.
# compound smiles, unit, MIC KP 24 h
data = [
    ("[H]/N=C(\\N)NN=Cc1cc(Cl)cc(Cl)c1O", "µM", 500),
    ("NC(=O)N/N=C/c1ccc([N+](=O)[O-])o1", "µM", 62.5),
    ("[H]/N=C(\\N)NN=Cc1ccc(Cl)cc1O", "µM", 500),
]

Reported MIC KP 24 h for [H]/N=C(\N)NN=Cc1cc(I)ccc1O : what is it?
250

Tell me the measured MIC KP 24 h of [H]/N=C(\N)NN=Cc1cc(Cl)cc(Br)c1O , please.
250

---

- System: Candida krusei ATCC 6258
- assay details: microbe, parasite or virus in culture
- Type: cell-based
- study conditions: Pichia kudriavzevii, ATCC6258, 24 h, read-out: MIC CK 24 h
measured metric: MIC (µM)
Reply with just the number (in µM).

# compound, unit, MIC
rows = [
    ("[H]/N=C(\\N)NN=Cc1cc(I)ccc1O [Compound 1i]", "µM", 250),
    ("[H]/N=C(\\N)NN=Cc1cc(Cl)cc(Br)c1O [Compound 1k]", "µM", 500),
    ("CC(=O)Oc1c(I)cc(I)cc1/C=N/NC(=N)N [Compound 2a]", "µM", 500),
]

Query: MIC; subject: Cl.N=C(NN)N/N=C/c1cc(I)cc(I)c1O [Compound 2e]
125

Reported MIC, compound [H]/N=C(\N)NN=Cc1ccc([N+](=O)[O-])s1 [Compound 1o] : ____
500

Could you share which MIC value was measured for [H]/N=C(\N)NN=Cc1cc(Cl)cc(I)c1O [Compound 1l] ?
500

---

- Test system: HepG2 cells
- assay details: LDH release assay (CytoTox 96), membrane integrity
- study conditions: read-out: EC50 LDH release assay; HepG2, 24 h incubation
Each item that follows carries a reported pEC50.
The value called pEC50 is obtained by taking minus log10 of the concentration in mol/L.

Would you please look over these solved cases?
# compound smiles, pEC50
data = [
    ("CC(=O)Oc1c(I)cc(I)cc1/C=N/NC(=N)N", 4.52),
    ("NC(N)=NN=C1C(=O)Nc2ccccc21", 3.89),
    ("[H]/N=C(\\N)NN=Cc1cc(I)cc(I)c1", 5.26),
]

Fill blank: measured pEC50 of the compound NC(=S)N/N=C/c1ccc([N+](=O)[O-])o1 is ____.
5.28

Would you kindly share the measured pEC50 for [H]/N=C(\N)NN=Cc1ccc([N+](=O)[O-])o1 ?
5.45

Query (compound): [H]/N=C(\N)NN=Cc1cc(I)cc(I)c1O ; field requested: pEC50
4.67

---

- System: Staphylococcus epidermidis ATCC 12228
- assay details: Antibacterial microdilution broth method (EUCAST)
- Type: cell-based
- study conditions: ATCC12228, 24 h, read-out: MIC SE 24 h
Examples of compounds with documented MIC follow.
Give just the numeric value; µM need not be written.

# compound smiles, recorded result
data = [
    ("[H]/N=C(\\N)NN=Cc1ccc(Cl)cc1O", 125),
    ("NC(=S)N/N=C/c1cc(I)cc(I)c1O", 250),
]

Please examine the following record next.
Item under review: [H]/N=C(\N)NN=Cc1ccc([N+](=O)[O-])s1 . Reported MIC?
62.5

---

- Tested on: Acinetobacter baumannii ATCC 19606
- assay details: Antibacterial microdilution broth method (EUCAST)
- Type: cell-based
- study conditions: ATCC19606, 48 h, read-out: MIC ACI 48 h
measured metric: MIC (µM)
API: value field is a number in µM; no unit string.

# compound smiles, MIC, µM
data = [
    ("[H]/N=C(\\N)NN=Cc1ccc([N+](=O)[O-])o1", 500),
    ("[H]/N=C(\\N)NN=Cc1cc(I)cc(I)c1", 250),
    ("[H]/N=C(\\N)NN=Cc1cc(I)ccc1O", 500),
    ("[H]/N=C(\\N)NN=Cc1cc(Cl)cc(I)c1O", 500),
    ("[H]/N=C(\\N)NN=Cc1cc(Cl)ccc1O", 500),
    ("CC(=O)Oc1c(I)cc(I)cc1/C=N/NC(=N)N", 500),
    ("[H]/N=C(\\N)NN=Cc1ccc([N+](=O)[O-])s1", 125),
    ("[H]/N=C(\\N)NN=Cc1cc(Cl)cc(Cl)c1O", 500),
]

Record [H]/N=C(\N)NN=Cc1c(O)cccc1Cl : what is its MIC with Acinetobacter baumannii ATCC 19606?
500

Request body: readout MIC, system Acinetobacter baumannii ATCC 19606, query [H]/N=C(\N)NN=Cc1ccc(Cl)cc1O . Return the value.
500
